# System: PfHDP1 homeodomain (GST-tagged)
# procedure details: gcPBM binding intensity (ln(normalized median fluorescence intensity)); higher = stronger DNA binding
The full ranking holds about 25,000 sequences; the median of “ln(normalized median fluorescence intensity)” is about 6.7, and the highest 2% start at about 10. This is one part of a sample in which the highest values are shown more often than they occur.
outcome measure: gcPBM binding intensity (ln)
Please state the value as a number alone, without comment.

>  <seq text>
ATATTTAAATAATATTCACACACAAAATTATATTTT [CACACA_site7955]

>  <gcPBM binding intensity (ln)>
6.44

$$$$
>  <seq text>
ATATATAGAATGTGTACACACATATGTATTTATATA [CACACA_site810]

>  <gcPBM binding intensity (ln)>
6.7

$$$$
>  <seq text>
AAATATAATATATGCACACATACATACATATATATA [CACACA_site104]

>  <gcPBM binding intensity (ln)>
10.3

$$$$
>  <seq text>
TATATATATATATGTATGCACTTTAATTTTATAAGG

>  <gcPBM binding intensity (ln)>
9.31

$$$$
>  <seq text>
TATTTCTTTTGGTTGGTGCATAAAATAATACAATAT [GTGCAC_site9916]

>  <gcPBM binding intensity (ln)>
10.5

$$$$
>  <seq text>
AAAATATAAAATAATGCACACATAAACAAAAAATCA [CACACA_site8382]

>  <gcPBM binding intensity (ln)>
10.5

$$$$
>  <seq text>
CAATGCTTTATCAATACATGCATATATATAGAAATA [TGCATGCA_site857]

>  <gcPBM binding intensity (ln)>
6.46

$$$$
>  <seq text>
ATGTGATAGAAGTACACACACATATGTATTTATAAT [CACACA_site5075]

>  <gcPBM binding intensity (ln)>
6.7

$$$$
>  <seq text>
ATGTAGAAGTAATGCACACATATGTATATATATATA [CACACA_site2494]

>  <gcPBM binding intensity (ln)>
10.5

$$$$
>  <seq text>
TGTATATATAAACATGCACACGTGGTTGTATATATA [CACACA_site9078]

>  <gcPBM binding intensity (ln)>
8.31

$$$$

## Input Please report gcPBM binding intensity (ln) for the following sequence: TATATATATGAGTATACACACCTGATAAAGGTATAT [CACACA_site5462]
## Output 6.87

## Input Please report gcPBM binding intensity (ln) for the following sequence: GTACACCTATAATATACACACAACAAATATGCACAT [CACACA_site6603]
## Output 10.2

## Input Please report gcPBM binding intensity (ln) for the following sequence: TATAATAATAATAATAGTACGTATTATTAAAAAACT [XGTACX_site10]
## Output 6.58

## Input Please report gcPBM binding intensity (ln) for the following sequence: ACCAATAAATATTTGGTGCATACATATATATATATA
## Output 10.5

## Input Please report gcPBM binding intensity (ln) for the following sequence: AATATAAAATAATGCACACATAAACAAAAAATCAAA [CACACA_site1371]
## Output 10.4

## Input Please report gcPBM binding intensity (ln) for the following sequence: CAGACGCACGTATTTGCACACATTGCCACGTAATTA [CACACA_site3349]
## Output 10.2

## Input Please report gcPBM binding intensity (ln) for the following sequence: TTATTAAATAAAATCATGCACACAATATATATTTTA [CACACA_site2496]
## Output 8.65

## Input Please report gcPBM binding intensity (ln) for the following sequence: TATTCTTACAAAAGTAGTACAATCATTCATATTTTT [XGTACX_site631]
## Output 6.42

## Input Please report gcPBM binding intensity (ln) for the following sequence: ATGAATCCTTAATATGAACACACAAATATATTACAC [CACACA_site7943]
## Output 6.7

## Input Please report gcPBM binding intensity (ln) for the following sequence: TTATATATTTTTTGCACACCAAAAAAGAGAATATTC [CACACA_site2730]
## Output 10
